- Test system: MCF-7 breast adenocarcinoma cells
- method: MCF-7 Proliferation Assay
- Assay type: cell-based
- stated.conditions: Homo sapiens, MCF7; MCF-7 cells, 48 hours with drug, 4 hours thymidine pulse; read-out: IC50 (MCF-7 proliferation, tritiated thymidine)
Property: IC50; scope: individual compounds
Field format: number, assumed nM, no unit text.

Before answering, review these 2 worked examples.
compound: CCOP(=O)(OCC)Oc1ccc(-c2sc3cc(OP(=O)(OCC)OCC)ccc3c2C(=O)c2ccc(OCCN3CCCCC3)cc2)cc1.Cl [Example 1]
unit.tag: nM
measurement: 1
//
compound: Cl.O=C(c1ccc(OCCN2CCCCC2)cc1)c1c(-c2ccc(OP(=O)(c3ccccc3)c3ccccc3)cc2)sc2cc(OP(=O)(c3ccccc3)c3ccccc3)ccc12 [Example 3]
unit.tag: nM
measurement: 1

Let's switch to this compound now.
For the compound Cl.O=C(c1ccc(OCCN2CCCCC2)cc1)c1c(-c2ccc(OP(=O)(Oc3ccccc3)Oc3ccccc3)cc2)sc2cc(OP(=O)(Oc3ccccc3)Oc3ccccc3)ccc12 [Example 2] , give its measured IC50 value.
10

====

- Tested on: Uterine Eosinophil Peroxidase (EPO)
- method: Uterine Eosinophil Peroxidase (EPO) Assay
- Type: in vivo, rat
- stated.conditions: OVX Sprague Dawley rats, oral, daily for 4 days, dose 0.1 mg/kg
measure: Uterine EPO (V. max)

State its Uterine EPO (V. max): C#C[C@]1(O)CC[C@H]2[C@@H]3CCc4cc(O)ccc4[C@H]3CC[C@@]21C [EE2, 17α-ethynyl estradiol, reference compound]
109.3

====

Property: Serum Cholesterol (% decrease vs. OVX); scope: individual compounds
- System: ovariectomized rats
- method: Serum cholesterol in ovariectomized rat post-menopausal model
- Type: in vivo
- stated.conditions: OVX Sprague Dawley rats, oral, daily for 4 days, dose 1.0 mg/kg

These recorded examples may help you get a feel for the data.
compound: Cl.O=C(c1ccc(OCCN2CCCCC2)cc1)c1c(-c2ccc(OP(=O)(Oc3ccccc3)Oc3ccccc3)cc2)sc2cc(OP(=O)(Oc3ccccc3)Oc3ccccc3)ccc12
Serum Cholesterol (% decrease vs. OVX): 55.2%
--
compound: CCOP(=O)(OCC)Oc1ccc(-c2sc3cc(OP(=O)(OCC)OCC)ccc3c2C(=O)c2ccc(OCCN3CCCCC3)cc2)cc1.Cl
Serum Cholesterol (% decrease vs. OVX): 17.4%
--
compound: Cl.O=C(c1ccc(OCCN2CCCCC2)cc1)c1c(-c2ccc(OP(=O)(c3ccccc3)c3ccccc3)cc2)sc2cc(OP(=O)(c3ccccc3)c3ccccc3)ccc12
Serum Cholesterol (% decrease vs. OVX): 57.5%

API: the following record is the query input.
Give the measured Serum Cholesterol (% decrease vs. OVX) for Cl.O=C(c1ccc(OCCN2CCCCC2)cc1)c1c(-c2ccc(O)cc2)sc2cc(O)ccc12 [Raloxifene, reference compound]
71.1%

====

- System: ovariectomized rats
- method: Uterine weight in ovariectomized rat post-menopausal model (4-day dosing)
- Format: in vivo
- stated.conditions: OVX Sprague Dawley rats, oral, daily for 4 days, dose 0.1 mg/kg
measure: Uterine Weight (% increase vs. OVX) (%)
Quick note: give the figure in %, leave out the unit.

These solved cases illustrate the format of a correct answer.
compound: C#C[C@]1(O)CC[C@H]2[C@@H]3CCc4cc(O)ccc4[C@H]3CC[C@@]21C [EE2, 17α-ethynyl estradiol, reference compound]
measurement: 171.5
//
compound: CCOP(=O)(OCC)Oc1ccc(-c2sc3cc(OP(=O)(OCC)OCC)ccc3c2C(=O)c2ccc(OCCN3CCCCC3)cc2)cc1.Cl
measurement: 25.2
//
compound: Cl.O=C(c1ccc(OCCN2CCCCC2)cc1)c1c(-c2ccc(OP(=O)(Oc3ccccc3)Oc3ccccc3)cc2)sc2cc(OP(=O)(Oc3ccccc3)Oc3ccccc3)ccc12
measurement: 12.4

Okay, now this compound:
Tell me Uterine Weight (% increase vs. OVX) of Cl.O=C(c1ccc(OCCN2CCCCC2)cc1)c1c(-c2ccc(OP(=O)(c3ccccc3)c3ccccc3)cc2)sc2cc(OP(=O)(c3ccccc3)c3ccccc3)ccc12 when tested on ovariectomized rats.
47.1

Just for reference, patent US6479517B1 is where these values come from.
